Molecular target: PD-1/PD-L1 (Homo sapiens (Human))
Experiment: NFAT assay: TCR Activitor/PD-L1 CHO cells co-cultured with PD-1/NFAT Reporter-Jurkat cells, Bright-Glo readout
Format: cell-based
Conditions: PD-L1 CHO / PD-1 NFAT Reporter-Jurkat co-culture, 5 hours
observationType: IC50 (nM)
A number alone suffices; assume nM.

For Cc1c(-c2nc3cc(CN4CC[C@@](C)(O)C4)cc(C#N)c3o2)cccc1-c1cccc2c1CCN2c1nc(C(F)F)nc2cc(CN3CC[C@@H](C(=O)O)C3)cnc12 , what is its reported IC50?
13.6

For Cc1c(-c2nc3cc(CN4CC[C@@H](O)C4)cc(C#N)c3o2)cccc1-c1cccc2c1CCN2c1nc(C(F)F)nc2cc(CN3CC[C@@H](C(=O)O)C3)cnc12 , what is its reported IC50?
8.98

For COc1nc(-c2cccc(-c3cccc4c3CCN4c3nc(C(F)F)nc4cc(CN5CC[C@@H](C(=O)O)C5)cnc34)c2Cl)ccc1CNC[C@@H]1CCC(=O)N1 , what is its reported IC50?
4.4

----------
Assay: In vivo pharmacokinetics study in mice
Design: species or system C57BL/6 mice
Conditions: male, C57BL/6, plasma, po; mouse, p.o. 10 mg/kg
observationType: Tmax

For Cc1c(-c2nc3cc(CN4CC[C@@H](C(=O)O)C4)cc(C#N)c3o2)cccc1-c1cccc2c1CCN2c1nc(C(F)F)nc2cc(CN3CC[C@@H](O)C3)cnc12 , what is its reported Tmax?
3.33 h

----------
Assay: In vivo pharmacokinetics study in mice
Parameters: species or system C57BL/6 mice
Details: male, C57BL/6, plasma, po; mouse, p.o. 10 mg/kg
observationType: half-life (h)
A number alone suffices; assume h.

For Cc1c(-c2nc3cc(CN4CC[C@@H](C(=O)O)C4)cc(C#N)c3o2)cccc1-c1cccc2c1CCN2c1nc(C(F)F)nc2cc(CN3CC[C@@H](O)C3)cnc12 , what is its reported half-life?
6.23

----------
Biological target: PD-1/PD-L1 (Homo sapiens (Human), UniProt Q9NZQ7)
Sequence (Q9NZQ7 19-290): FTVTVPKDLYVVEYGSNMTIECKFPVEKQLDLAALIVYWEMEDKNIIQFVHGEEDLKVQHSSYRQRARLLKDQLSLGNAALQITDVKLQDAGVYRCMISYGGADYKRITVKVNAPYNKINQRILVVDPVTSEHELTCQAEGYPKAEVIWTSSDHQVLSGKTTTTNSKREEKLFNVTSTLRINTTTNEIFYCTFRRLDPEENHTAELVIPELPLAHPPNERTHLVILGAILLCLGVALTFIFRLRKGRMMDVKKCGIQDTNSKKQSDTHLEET
Assay: NFAT assay: TCR Activitor/PD-L1 CHO cells co-cultured with PD-1/NFAT Reporter-Jurkat cells, Bright-Glo readout
Type: cell-based
Settings: PD-L1 CHO / PD-1 NFAT Reporter-Jurkat co-culture, 5 hours
observationType: IC50

Reported IC50 for PD-1/PD-L1 (Homo sapiens (Human), UniProt Q9NZQ7), given N#Cc1cc(CN2CC[C@@H](C(=O)O)C2)cc2nc(-c3cccc(-c4cccc5c4CCN5c4nc(C(F)F)nc5cc(CN6CC[C@@H](O)C6)cnc45)c3Cl)oc12 ?
4.67 nM

Reported IC50 for PD-1/PD-L1 (Homo sapiens (Human), UniProt Q9NZQ7), given COc1nc(-c2cccc(-c3cccc4c3CCN4c3nc(C(F)F)nc4cc(CN5CC[C@@H](O)C5)cnc34)c2C)ccc1CN1CC[C@@](C)(C(=O)O)C1 ?
32.6 nM

Reported IC50 for PD-1/PD-L1 (Homo sapiens (Human), UniProt Q9NZQ7), given COc1nc(-c2cccc(-c3cccc4c3CCN4c3nc(C(F)F)nc4cc(CN5CC[C@@H](O)C5)cnc34)c2Cl)cnc1CN1CCC[C@H]1CC(=O)O ?
35.1 nM

----------
Assignment: determine reported AUC(0-t) for the given compounds.
Test: In vivo pharmacokinetics study in mice
Parameters: species or system C57BL/6 mice
Conditions: male, C57BL/6, plasma, po; mouse, p.o. 30 mg/kg
A number alone suffices; assume µM·h.

For COc1nc(-c2cccc(-c3cccc4c3CCN4c3nccc4cc(CN5CC[C@@H](O)C5)cnc34)c2Cl)cnc1CNC[C@@H]1CCC(=O)N1 , what is its reported AUC(0-t)?
20.6

For COc1nc(-c2cccc(-c3cccc4c3CCN4c3nccc4cc(CN5CC[C@@H](O)C5)cnc34)c2Cl)ccc1CNC[C@@H]1CCC(=O)N1 , what is its reported AUC(0-t)?
13.7
